tested on: Erwinia amylovora PMV6076; assay: MIC, growth inhibition in microtiter plates (TSB); type: cell-based; details: Ea, 25°C, 48 h, OD 600 nm, lowest concentration with no growth, given as interval of tested concentrations, three replicates, experiment repeated twice
readout-type: MIC

1) CCCC(=O)NCCCC[C@H](NC(=O)[C@H](CC(C)C)NC(=O)[C@@H](NC(=O)[C@H](CCCCN)NC(=O)[C@H](CCCCN)NC(=O)[C@H](Cc1ccccc1)NC(=O)[C@H](CC(C)C)NC(=O)[C@H](CCCCN)NC(=O)[C@H](CCCCN)NC(C)=O)[C@@H](C)CC)C(=O)N[C@@H](Cc1ccc(O)cc1)C(=O)N[C@@H](CC(C)C)C(N)=O: 3.1 to 6.2 µM
2) CCCCCCCCCCCC(=O)N[C@@H](CCCCN)C(=O)N[C@@H](CCCCN)C(=O)N[C@@H](CC(C)C)C(=O)N[C@@H](Cc1ccccc1)C(=O)N[C@@H](CCCCN)C(=O)N[C@@H](CCCCN)C(=O)N[C@H](C(=O)N[C@@H](CC(C)C)C(=O)N[C@@H](CCCCN)C(=O)N[C@@H](Cc1ccc(O)cc1)C(=O)N[C@@H](CC(C)C)C(N)=O)[C@@H](C)CC [BP391, C11H23CO-KKLFKKILKYL-NH2]: >25 µM
3) CCCCCCCCCCCC(=O)NCCCC[C@H](NC(C)=O)C(=O)N[C@@H](CCCCN)C(=O)N[C@@H](CC(C)C)C(=O)N[C@@H](Cc1ccccc1)C(=O)N[C@@H](CCCCN)C(=O)N[C@@H](CCCCN)C(=O)N[C@H](C(=O)N[C@@H](CC(C)C)C(=O)N[C@@H](CCCCN)C(=O)N[C@@H](Cc1ccc(O)cc1)C(=O)N[C@@H](CC(C)C)C(N)=O)[C@@H](C)CC: >25 µM
4) CCCCCCCCCCCC(=O)NCCCC[C@H](NC(=O)[C@H](CCCCN)NC(=O)[C@H](CC(C)C)NC(=O)[C@@H](NC(=O)[C@H](CCCCN)NC(=O)[C@H](CCCCN)NC(=O)[C@H](Cc1ccccc1)NC(=O)[C@H](CC(C)C)NC(=O)[C@H](CCCCN)NC(=O)[C@H](CCCCN)NC(C)=O)[C@@H](C)CC)C(=O)N[C@@H](CC(C)C)C(N)=O: >25 µM
5) CCCCCCCCCCCC(=O)NCCCC[C@H](NC(=O)[C@H](Cc1ccc(O)cc1)NC(=O)[C@H](CCCCN)NC(=O)[C@H](CC(C)C)NC(=O)[C@@H](NC(=O)[C@H](CCCCN)NC(=O)[C@H](CCCCN)NC(=O)[C@H](Cc1ccccc1)NC(=O)[C@H](CC(C)C)NC(=O)[C@H](CCCCN)NC(=O)[C@H](CCCCN)NC(C)=O)[C@@H](C)CC)C(N)=O: 3.1 to 6.2 µM
6) CCCCCC(=O)NCCCC[C@H](NC(=O)[C@H](CCCCN)NC(=O)[C@H](Cc1ccccc1)NC(=O)[C@H](CC(C)C)NC(=O)[C@H](CCCCN)NC(=O)[C@H](CCCCN)NC(C)=O)C(=O)N[C@H](C(=O)N[C@@H](CC(C)C)C(=O)N[C@@H](CCCCN)C(=O)N[C@@H](Cc1ccc(O)cc1)C(=O)N[C@@H](CC(C)C)C(N)=O)[C@@H](C)CC: 3.1 to 6.2 µM
7) CCCC(=O)NCCCC[C@H](NC(C)=O)C(=O)N[C@@H](CCCCN)C(=O)N[C@@H](CC(C)C)C(=O)N[C@@H](Cc1ccccc1)C(=O)N[C@@H](CCCCN)C(=O)N[C@@H](CCCCN)C(=O)N[C@H](C(=O)N[C@@H](CC(C)C)C(=O)N[C@@H](CCCCN)C(=O)N[C@@H](Cc1ccc(O)cc1)C(=O)N[C@@H](CC(C)C)C(N)=O)[C@@H](C)CC: 3.1 to 6.2 µM
8) CCCCCCCCCCCC(=O)NCCCC[C@H](NC(=O)[C@H](CC(C)C)NC(=O)[C@@H](NC(=O)[C@H](CCCCN)NC(=O)[C@H](CCCCN)NC(=O)[C@H](Cc1ccccc1)NC(=O)[C@H](CC(C)C)NC(=O)[C@H](CCCCN)NC(=O)[C@H](CCCCN)NC(C)=O)[C@@H](C)CC)C(=O)N[C@@H](Cc1ccc(O)cc1)C(=O)N[C@@H](CC(C)C)C(N)=O: >25 µM
9) CCCC(=O)NCCCC[C@H](NC(=O)[C@H](Cc1ccccc1)NC(=O)[C@H](CC(C)C)NC(=O)[C@H](CCCCN)NC(=O)[C@H](CCCCN)NC(C)=O)C(=O)N[C@@H](CCCCN)C(=O)N[C@H](C(=O)N[C@@H](CC(C)C)C(=O)N[C@@H](CCCCN)C(=O)N[C@@H](Cc1ccc(O)cc1)C(=O)N[C@@H](CC(C)C)C(N)=O)[C@@H](C)CC: 3.1 to 6.2 µM

Now for the compound whose MIC we want.
Could you share which MIC value was measured for CCCCCC(=O)NCCCC[C@H](NC(=O)[C@H](CCCCN)NC(C)=O)C(=O)N[C@@H](CC(C)C)C(=O)N[C@@H](Cc1ccccc1)C(=O)N[C@@H](CCCCN)C(=O)N[C@@H](CCCCN)C(=O)N[C@H](C(=O)N[C@@H](CC(C)C)C(=O)N[C@@H](CCCCN)C(=O)N[C@@H](Cc1ccc(O)cc1)C(=O)N[C@@H](CC(C)C)C(N)=O)[C@@H](C)CC ? 6.2 to 12.5 µM

###

tested on: defense-related genes in tomato plants; assay: Induction of defense gene expression of tomato plants (RT-qPCR); format: in vivo, tomato cv. Rio Grande; settings: tomato leaves sprayed, 24 h; peptides and flg15 125 μM, JA 2.5 mM, ASM 300 mg/L; ΔΔCt relative to actin; above 2 = overexpression
Decision: ERT3 gene expression, fold induction compared against 0.7; not below it gives Condition met, below it gives Condition not met.

Use these answered entries as a reference point.
1. CCCC(=O)NCCCC[C@H](NC(=O)[C@H](CCCCN)NC(=O)[C@H](CC(C)C)NC(=O)[C@@H](NC(=O)[C@H](CCCCN)NC(=O)[C@H](CCCCN)NC(=O)[C@H](Cc1ccccc1)NC(=O)[C@H](CC(C)C)NC(=O)[C@H](CCCCN)NC(=O)[C@H](CCCCN)NC(C)=O)[C@@H](C)CC)C(=O)N[C@@H](CC(C)C)C(N)=O: Condition not met
2. CCCCCC(=O)NCCCC[C@H](NC(=O)[C@H](CCCCN)NC(=O)[C@H](CCCCN)NC(=O)[C@H](Cc1ccccc1)NC(=O)[C@H](CC(C)C)NC(=O)[C@H](CCCCN)NC(=O)[C@H](CCCCN)NC(C)=O)C(=O)N[C@@H](CC(C)C)C(=O)N[C@@H](CCCCN)C(=O)N[C@@H](Cc1ccc(O)cc1)C(=O)N[C@@H](CC(C)C)C(N)=O: Condition met
3. CC[C@H](C)[C@H](NC(=O)[C@H](CCCCN)NC(=O)[C@H](CCCCN)NC(=O)[C@H](Cc1ccccc1)NC(=O)[C@H](CC(C)C)NC(=O)[C@H](CCCCN)NC(=O)[C@@H](N)CCCCN)C(=O)N[C@@H](CC(C)C)C(=O)N[C@@H](CCCCN)C(=O)N[C@@H](Cc1ccc(O)cc1)C(=O)N[C@@H](CC(C)C)C(N)=O: Condition met

Exam item: decide whether the reported ERT3 gene expression, fold induction for CC/C=C\C[C@H]1C(=O)CC[C@@H]1CC(=O)O [JA, jasmonic acid, reference compound] is at least 0.7. Condition met

Exam item: decide whether the reported ERT3 gene expression, fold induction for CCCC(=O)NCCCC[C@H](NC(=O)[C@H](CCCCN)NC(=O)[C@H](Cc1ccccc1)NC(=O)[C@H](CC(C)C)NC(=O)[C@H](CCCCN)NC(=O)[C@H](CCCCN)NC(C)=O)C(=O)N[C@H](C(=O)N[C@@H](CC(C)C)C(=O)N[C@@H](CCCCN)C(=O)N[C@@H](Cc1ccc(O)cc1)C(=O)N[C@@H](CC(C)C)C(N)=O)[C@@H](C)CC is at least 0.7. Condition not met

###

Consider the following compounds; for each one, report its Harp gene expression, fold induction.
test system: defense-related genes in tomato plants; assay: Induction of defense gene expression of tomato plants (RT-qPCR); format: in vivo, tomato cv. Rio Grande; settings: tomato leaves sprayed, 24 h; peptides and flg15 125 μM, JA 2.5 mM, ASM 300 mg/L; ΔΔCt relative to actin; above 2 = overexpression
One number for each entry.

Here are 3 compounds together with their reported answers.
1. CC[C@H](C)[C@H](NC(=O)[C@H](CCCCN)NC(=O)[C@H](CCCCN)NC(=O)[C@H](Cc1ccccc1)NC(=O)[C@H](CC(C)C)NC(=O)[C@H](CCCCN)NC(=O)[C@@H](N)CCCCN)C(=O)N[C@@H](CC(C)C)C(=O)N[C@@H](CCCCN)C(=O)N[C@@H](Cc1ccc(O)cc1)C(=O)N[C@@H](CC(C)C)C(N)=O: 0.5
2. CCCCCCCCCCCC(=O)NCCCC[C@H](NC(=O)[C@H](CC(C)C)NC(=O)[C@@H](NC(=O)[C@H](CCCCN)NC(=O)[C@H](CCCCN)NC(=O)[C@H](Cc1ccccc1)NC(=O)[C@H](CC(C)C)NC(=O)[C@H](CCCCN)NC(=O)[C@H](CCCCN)NC(C)=O)[C@@H](C)CC)C(=O)N[C@@H](Cc1ccc(O)cc1)C(=O)N[C@@H](CC(C)C)C(N)=O: 1.4
3. CCCC(=O)NCCCC[C@H](NC(=O)[C@H](CCCCN)NC(=O)[C@H](CC(C)C)NC(=O)[C@@H](NC(=O)[C@H](CCCCN)NC(=O)[C@H](CCCCN)NC(=O)[C@H](Cc1ccccc1)NC(=O)[C@H](CC(C)C)NC(=O)[C@H](CCCCN)NC(=O)[C@H](CCCCN)NC(C)=O)[C@@H](C)CC)C(=O)N[C@@H](CC(C)C)C(N)=O: 0.9

GET /values?readout=Harp gene expression, fold induction&item= CCCC(=O)NCCCC[C@H](NC(=O)[C@H](CCCCN)NC(C)=O)C(=O)N[C@@H](CC(C)C)C(=O)N[C@@H](Cc1ccccc1)C(=O)N[C@@H](CCCCN)C(=O)N[C@@H](CCCCN)C(=O)N[C@H](C(=O)N[C@@H](CC(C)C)C(=O)N[C@@H](CCCCN)C(=O)N[C@@H](Cc1ccc(O)cc1)C(=O)N[C@@H](CC(C)C)C(N)=O)[C@@H](C)CC 0.7

Where these numbers come from: paper PMC6063448
